Species: Mus musculus
Experiment: Tested for inhibition against purified Folyl-polyglutamate synthase from mouse liver
Details: concentration not given here
result type: inhibition (%)
# unit: % | format: bare number

Report inhibition for Nc1nc(N)c2nc(CNc3ccc(C(=O)NC(CCCCCCCCCC(=O)O)C(=O)O)cc3)cnc2n1 (centres undefined) please.
90

Fill in: inhibition of CN(Cc1cnc2nc(N)nc(N)c2n1)c1ccc(C(=O)NC(CCCCCCCCC(=O)O)C(=O)O)cc1 (centres undefined) is ___
49

Quick one: inhibition of Nc1nc(N)c2nc(CNc3ccc(C(=O)NC(CCCCCCCCCCC(=O)O)C(=O)O)cc3)cnc2n1 (centres undefined) ?
74

Which measured inhibition value corresponds to CN(Cc1cnc2nc(N)nc(N)c2n1)c1ccc(C(=O)NC(CCCCCCCCCCC(=O)O)C(=O)O)cc1 (centres undefined) ?
59

----------
Target: UniProtKB P48760
Sequence (P48760 whole entry): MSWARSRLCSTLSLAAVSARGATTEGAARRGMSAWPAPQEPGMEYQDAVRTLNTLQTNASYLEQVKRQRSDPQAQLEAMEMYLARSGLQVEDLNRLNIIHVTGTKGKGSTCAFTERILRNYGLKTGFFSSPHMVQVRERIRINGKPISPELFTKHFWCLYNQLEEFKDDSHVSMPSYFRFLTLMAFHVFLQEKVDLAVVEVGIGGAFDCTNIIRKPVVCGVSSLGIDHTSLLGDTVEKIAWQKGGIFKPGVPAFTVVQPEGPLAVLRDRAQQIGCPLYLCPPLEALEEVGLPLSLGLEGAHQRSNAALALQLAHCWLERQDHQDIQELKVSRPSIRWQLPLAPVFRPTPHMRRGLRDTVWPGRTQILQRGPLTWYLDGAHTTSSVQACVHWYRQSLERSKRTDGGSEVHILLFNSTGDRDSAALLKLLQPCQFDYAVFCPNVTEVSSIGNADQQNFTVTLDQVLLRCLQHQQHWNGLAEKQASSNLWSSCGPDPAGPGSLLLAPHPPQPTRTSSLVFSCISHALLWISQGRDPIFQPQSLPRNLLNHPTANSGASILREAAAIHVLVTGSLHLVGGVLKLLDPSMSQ
Test: Inhibitory constant against purified Folyl-polyglutamate synthase obtained from mouse liver
result type: pKi
Entry type: numeric. Quantity: pKi, the -log10 of concentration in molar units.

pKi lookup needed for CN(Cc1cnc2nc(N)nc(N)c2n1)c1ccc(C(=O)N[C@@H](CCCN)C(=O)O)cc1 , thanks.
4.70

----------
Biological target: Dihydrofolate reductase (Mus musculus, UniProt P00375)
Sequence (P00375 whole entry): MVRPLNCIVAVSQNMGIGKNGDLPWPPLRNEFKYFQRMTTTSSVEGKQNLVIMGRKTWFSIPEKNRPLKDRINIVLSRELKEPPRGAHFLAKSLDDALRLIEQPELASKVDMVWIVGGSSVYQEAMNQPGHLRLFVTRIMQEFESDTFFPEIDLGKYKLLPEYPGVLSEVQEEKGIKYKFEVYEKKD
result type: pIC50
FYI, pIC50 means -log10 of a concentration in mol per litre.

What pIC50 value was documented for this molecule, CN(Cc1cnc2nc(N)nc(N)c2n1)c1ccc(C(=O)NC(CCCCCCCCCC(=O)O)C(=O)O)cc1 (centres undefined) ?
7.47

Name the reported pIC50 value associated with the molecule Nc1nc(N)c2nc(CNc3ccc(C(=O)NC(CCCCCCCCCCC(=O)O)C(=O)O)cc3)cnc2n1 (centres undefined)
7.17

What value of pIC50 has been recorded for this entry: Nc1nc(N)c2nc(CNc3ccc(C(=O)N[C@@H](CCC(=O)O)C(=O)O)cc3)cnc2n1
7.60

Reported pIC50 for CN(Cc1cnc2nc(N)nc(N)c2n1)c1ccc(C(=O)NC(CCCCCCCCC(=O)O)C(=O)O)cc1 (centres undefined) : what is it?
7.54

----------
Test system: L1210
Assay: Mean survival of mice infected with L1210 leukemia after an intraperitoneal dose of 20 mg/kg for 9 days
Assay type: functional, Mus musculus
result type: Survival (days)
Kindly answer with a numeric value in days, unit omitted.

Which Survival is listed for CN(Cc1cnc2nc(N)nc(N)c2n1)c1ccc(C(=O)NC(CCCCCCC(=O)O)C(=O)O)cc1 (stereo not given) ?
14.8

# get_value(readout='Survival', item= CN(Cc1cnc2nc(N)nc(N)c2n1)c1ccc(C(=O)NC(CCCCCCCCC(=O)O)C(=O)O)cc1 (stereo not given) )
15.2

What does the record list as Survival for CN(Cc1cnc2nc(N)nc(N)c2n1)c1ccc(C(=O)NC(CCCCCCCCCC(=O)O)C(=O)O)cc1 (stereo not given) ?
17.4

I'd like to know its Survival. The compound in question is CN(Cc1cnc2nc(N)nc(N)c2n1)c1ccc(C(=O)NC(CCCCCCCC(=O)O)C(=O)O)cc1 (stereo not given)
13.6

Please report the recorded Survival for CN(Cc1cnc2nc(N)nc(N)c2n1)c1ccc(C(=O)NC(CCCCCCCCCCC(=O)O)C(=O)O)cc1 (stereo not given) .
20.4

Taken from ChEMBL document CHEMBL1124261.
